pIC50: −log10 of the molar value.
Ok so here's the combined literature set: pIC50 for M-phase inducer phosphatase 2 (Homo sapiens, UniProt P30305).
parameter.measured: pIC50

- Cc1ccc(/C=C/C2=Cc3c(sc(NC(=O)CSc4nnc(N)[nH]4)c3C#N)C(C)(C)C2)o1: 4.33
- O=C(NC1(O)C(=O)c2ccccc2C1=O)c1ccccc1: 4.90
- CCCCCCCCCCCC/C=C/[C@@]12C(=O)O[C@@H](C)[C@@H]1[C@H]1C(=C[C@H]2CCCCCCCCCCCC)C(=O)O[C@H]1C: 5.63
- CC(C)Cn1c(N)c(C(=O)COC(=O)c2cc(-c3ccco3)nc3ccccc23)c(=O)n(C)c1=O: 4.88
- CCCCCCCCCCCCC/C=C/[C@@]12C(=O)O[C@@H](C)[C@@H]1[C@H](C(C)=O)C(C(=O)O)=C[C@H]2CCCCCCCCCCCC: 6.66
- CCCCCCCCCCCC[C@@H]1C=C2C(=O)O[C@@]3(C)O[C@@]4(C)OC(=O)[C@]1(CO)[C@H]4[C@@H]23: 4.77
- O=C(Nc1ccc2nc(-c3ccco3)c(-c3ccco3)nc2c1)N1CCCCCC1: 4.50
- CCCCn1c(NC(=O)c2ccccc2)c(C#N)c2nc3ccccc3nc21: 4.50
- COc1ccc(Cn2c(C)nc3c(c2=O)c2nc4ccccc4nc2n3Cc2ccco2)cc1: 4.33
- Cc1ccc2c(c1C)NC(C(=O)O)C1CC=CC21 (stereo not drawn): 4.97
- Cc1ccc(-c2csc(NC(=O)c3ccno3)n2)cc1: 4.45
- CCn1c(SCC(=O)Nc2ccc3c(c2)c2ccccc2n3CC)nnc1-c1ccco1: 4.34
